// data source = PubChem BioAssay (NCI)

Overview of reported TGI across a group of molecules:
- System: HOP-92 NSCLC
- Measurement Description: NCI tumour cell line growth inhibition, 48 h

Give TGI for COc1ccc2c(c1)c(-c1nc(-c3c[nH]c4ncccc34)cs1)cn2CCCCN1CCCCC1
2.48 µM

Give TGI for COc1ccc2c(c1)C(C)Cc1c(ncnc1-n1cnc3ccccc31)N2C (stereo unspecified)
8.23 µM

Give TGI for C/C(=N\NC(=S)N1CCCC1)c1nc2ncccc2[nH]1
8.5 µM

Give TGI for NC(CCc1ncc(C(=O)O)s1)C(=O)O (stereo unspecified)
> 100 µM

Give TGI for CC1CCC(C(C)(C)c2ccccc2)C(=O)C1 (stereo unspecified)
> 100 µM

Give TGI for COc1ccc(-c2noc(N)c2-c2cc(OC)c3c(c2)OCO3)cc1
76.8 µM
